- target-of-assay: SARS-CoV-2 Omicron (B.1.1.529) RBD (SARS-CoV-2 Omicron B.1.1.529 (BA.1), strain)
endpoint-label: binding result

BD55-1962 (antibody, V domains shown) VH: QVQLVQSGAEVKKPGSSVKVSCTASGDSFSSYAITWVRQAPGQGLEWMGRIIPILGIANYAQKFQGRVTLTADKSAGTAYMELSSLRSDDTAVYYCASGYDFHFDYWGQGTLVTVYS VL: QSALTQPASVSGSPGQSITISCTGTSSDVGDYKYVSWYQQHAGKAPKLMIHDVSKRPSGVSSRFSGSKSGNTASLTISGLQAEDEADYYCSSYTSSSSWVFGGGTKLTVL
binds
DH1045 (antibody, V domains shown) VH: QLQLQESGPGLVKPSETLSLTCTVSGGSISSSGYYWGWIRQPPGKGLEWIGTIYYGGSTYYSPSLKSRVTISVDTSKNQFSLKLSSVTAADTAVYYCASQQWLRGNFDYWGQGTLVTVSS VL: NFMLTQPHSVSESPGKTVTISCTGSSGSIASNYVQWYQQRPGSAPTTVIYEDNQRPSGVPDRFSGSIDSSSNSASLTISGLKTEDEADYYCQSYDSSTYWVFGGGTKLTVL
binds
BD55-5386 (antibody, V domains shown) VH: QVQLLQSGAEVKKPGSSVTVSCKASGGTFTNSAINWVRQAPGQGLEWIGGIIPIIGPTSYAQKFQGRVTITADESSTTAYLDLRSLRSDDTAVYYCAKAHCGDCTPPRGYYFYYFGMDVWGQGTTVTVSS VL: SYELTQPPSVSVSPGQTARITCSGDALPKQYSYWYQQRPGQAPVLLIYKDNERPSGIPERFSGSSSGTTVTLTISGVQAEDEADYYCQSADASSTYVVFGGGTKLTVL
binds
